# Experimental protocol: self-splicing fitness, log relative to wild type (ln ratio); higher = more splicing; Tetrahymena group I intron in knt gene, E. coli kanamycin selection, DiMSum; sequences stand for … in CUCUCU…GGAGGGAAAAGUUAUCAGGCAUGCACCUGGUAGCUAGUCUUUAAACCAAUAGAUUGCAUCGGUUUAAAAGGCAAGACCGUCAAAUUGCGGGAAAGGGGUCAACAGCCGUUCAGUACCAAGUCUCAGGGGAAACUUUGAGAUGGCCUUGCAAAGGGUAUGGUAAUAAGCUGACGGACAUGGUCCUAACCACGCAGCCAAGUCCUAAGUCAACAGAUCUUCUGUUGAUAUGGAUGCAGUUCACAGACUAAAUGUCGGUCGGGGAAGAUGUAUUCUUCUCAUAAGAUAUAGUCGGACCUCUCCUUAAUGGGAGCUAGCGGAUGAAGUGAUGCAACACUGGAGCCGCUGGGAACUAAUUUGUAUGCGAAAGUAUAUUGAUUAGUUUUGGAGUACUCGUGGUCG;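 note: selection with 25 µg/mL kanamycin versus none on LB agar overnight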
# Conditions used: 37 °C
Dear colleague, classification is by self-splicing fitness (ln), with ranges listed here: zone 1: < -2; zone 2: ≥ -2 and < -1; zone 3: ≥ -1

          entry_sequence  label_value
 0  UUCCAGCAAUAUUACGGUCC       zone 1
 1  CGGCAGCAAUAUUACGUUGG       zone 2
 2  CCUCAGCAAUAUUACGCCGU       zone 1
 3  GGUCAGCAAUAUUACGUGGA       zone 2
 4  UGCCAGCAAUAUUACGGCGA       zone 3
 5  AGACAGCAAUAUUACGGCCU       zone 3
 6  UGGUAGCAAUAUUACGCCCG       zone 3
 7  CCCCAGCAAUAUUACGACCA       zone 2
 8  AGGAAGCAAUAUUACGGGGU       zone 1
 9  GUAAAGCAAUAUUACGCUCA       zone 3
10  CAGCAGCAAUAUUACGGUGC       zone 1
11  UUUUAGCAAUAUUACGCGUC       zone 2
12  GCACAGCAAUAUUACGUCCC       zone 3
13  GCGUAGCAAUAUUACGUCAG       zone 2
14  GACCAGCAAUAUUACGUCCA       zone 3
15  UGCAAGCAAUAUUACGACAA       zone 3
16  CUAAAGCAAUAUUACGACGC       zone 2
17  ACGCAGCAAUAUUACGUCGC       zone 1
18  GUAUAGCAAUAUUACGGAAC       zone 2
19  UUGUAGCAAUAUUACGGGCU       zone 2
20  AGGCAGCAAUAUUACGACUG       zone 1
21  GGCUAGCAAUAUUACGGUAU       zone 3
22  CGGGAGCAAUAUUACGGGUA       zone 2
23  ACGCAGCAAUAUUACGCCGG       zone 3
24  CAAUAGCAAUAUUACGGUAU       zone 1
25  GGGAAGCAAUAUUACGCGAG       zone 2
26  UCGUAGCAAUAUUACGGCGU       zone 2
27  CGUAAGCAAUAUUACGAGAG       zone 1
28  UUCAAGCAAUAUUACGGCGG       zone 3
29  UCGCAGCAAUAUUACGUGGC       zone 1
30  GAGAAGCAAUAUUACGCCCG       zone 3
31  UUUAAGCAAUAUUACGUUGA       zone 2
32  AAUGAGCAAUAUUACGUUUG       zone 1
